B1: Hairpin Ribozyme (parent)
chain: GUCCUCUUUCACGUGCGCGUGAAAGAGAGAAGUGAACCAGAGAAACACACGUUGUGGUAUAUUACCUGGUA

Variants of: B1
Assay: self-cleavage, relative activity (ratio to wild type); higher = more cleavage; co-transcriptional
Classification by self-cleavage | ranges: bottom range: < 0.2; center range: ≥ 0.2 and < 0.3; top range: ≥ 0.3

Residue Codes: GUCCUCUUUCACGUGCGCGUGAAAGAGAGAAGUGAACCAGAGAAACACACGUUGUGGUAUAUUACCAGAUA [U67A G69A]
Assigned Label: bottom range

Residue Codes: GUCCUCCUUCACGUGCGCGAGAAAGAGAGAAGUGAACCAGAGAAACACACGUUGUGGUAUAUUACCUGGUA [U7C U20A]
Assigned Label: top range

Residue Codes: GUCCCCUUUCACGUGCGCGUGAAAGAGAGAAGUGAACCAGAGAAACAGACGUUGUGGUAUAUUACCUGGUA [U5C C48G]
Assigned Label: bottom range

Residue Codes: GUCCUUUUUCACGUGCGCGUGAAAGAGAGAAGUUAACCAGAGAAACACACGUUGUGGUAUAUUACCUGGUA [C6U G34U]
Assigned Label: top range

Residue Codes: GUCCUCUUUCACGUGCGCGUGAAAGAGAGAAGUGAACCAGAGAAACACACGUUUUGGUAUAUUACCUGGAA [G54U U70A]
Assigned Label: top range

Residue Codes: GGCCUCUUUCCCGUGCGCGUGAAAGAGAGAAGUGAACCAGAGAAACACACGUUGUGGUAUAUUACCUGGUA [U2G A11C]
Assigned Label: center range

Residue Codes: GUCCUCUUUCACGUGCGCGUGAAAGAGAGAAGUGAAACAGAGAAACACACCUUGUGGUAUAUUACCUGGUA [C37A G51C]
Assigned Label: center range

Residue Codes: GUCCUCUUUCACGUGCGCGUGAAAGAGAGAAGUGAACCAGAGAAACACACGUUGUGGUAUAGCACCUGGUA [U62G U63C]
Assigned Label: center range

Residue Codes: CUCCUCUUUCACGUGCGCGUGAAAUAGAGAAGUGAACCAGAGAAACACACGUUGUGGUAUAUUACCUGGUA [G1C G25U]
Assigned Label: center range

Residue Codes: GUCCUCUUUCACGUGCGCGUGAAAGAGAGAAGUGAACCAGAGAAACAAACGUUGUGGUAUAUUACCUUGUA [C48A G68U]
Assigned Label: bottom range

Residue Codes: GUCCUCUUUCACGUGCGGGUGAAAGAGAGAAGUGAACCAGAGAAACACACGUUGUGGUAUAUUACCUAGUA [C18G G68A]
Assigned Label: center range

Residue Codes: GUCCUCGUUCACGUGCGCGUGAAAGAGAGAAGGGAACCAGAGAAACACACGUUGUGGUAUAUUACCUGGUA [U7G U33G]
Assigned Label: bottom range

Residue Codes: GUCCUCUUUCACGUGCGGGUGAAAGAGAGAAGUGAACCAGAGAAACACACGUUGUGGUAUAUUACCUGAUA [C18G G69A]
Assigned Label: top range

Residue Codes: GUCCUCUUUCACGUGCGCGUGAAAGAGAGAAGUGAACCAGAGAAACACACGUAGUGAUAUAUUACCUGGUA [U53A G57A]
Assigned Label: bottom range
